TARGET_OR_TEST_SYSTEM: T1, HGREM1-His (ACRO) (human, UniProt O60565 25-184)
T1 construct: Lys25-Asp184 of NP_037504 with C-terminal polyhistidine tag (ACRO GR1-H52H3); they are put here; also called hGREM1 (ACRO); human gremlin (ACRO)
T1 sequence: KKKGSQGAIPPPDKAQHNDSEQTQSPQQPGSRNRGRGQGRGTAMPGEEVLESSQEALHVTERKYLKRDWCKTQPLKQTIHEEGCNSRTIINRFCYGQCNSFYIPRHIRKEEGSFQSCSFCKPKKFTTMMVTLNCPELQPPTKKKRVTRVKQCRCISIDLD
ASSAY_COMMENT: blocking ELISA, Human Gremlin-1 binding to BMP7; column OD450
# Lookup of reported IC50 keyed by entry
Give the number; µg/mL is assumed, so skip it.

BINDER	IC50, µg/mL
Hu14E3_HaLa (antibody, IgG1, V domains shown, humanized) VH: QVQLVQSGSELKKPGASVKVSCKASGYTFTTYGMAWMRQAPGQGLEWMGWINTLSGEPTYADDFKGRFVFSLDTSVSTAYLQISSLKAEDTAVYYCAREPMDYWGQGTMVTVSS VL: DVVMTQSPLSLPVTLGQPASISCKSSQSLLDSDGKTYLSWLQQRPGQSPRRLIYLVSKLDSGVPDRFSGSGSGTDFTLKISRVEAEDVGVYYCWQGAHFPLTFGQGTKLEIK	0.609
42B9 (antibody, V domains shown, mouse hybridoma antibody; also called hybridoma 42B9) VH: QVQLQQSGAELARPGASVKLSCKASGYTFTSYGIGWVKQRTGQGLEWIGEIYPRSGNTYNNEKFKGKATLTADKSSRTVYMELRSLISEDSAVYFCAREGYSNNYYAMDYWGQGTSVTVFS VL: DVLMTQTPLSLPVSLGDQASISCISSQSLVHSNGNTYLEWYLQKPGLSPKLLIYKVSNRFSGVPDRLSGSGSGTDFTLRISRVEAEDLGVYYCFQGSHVPFTFGSGTKLEIK	0.916
36F5 (antibody, V domains shown, mouse hybridoma antibody; also called hybridoma 36F5) VH: QVQLQQSGAELARPGASVKLSCKASGYSFTSSGIGWVKQRSGQGLEWIGEIYPRSGNTYNNEKFKGKATLTADKSSSTVYMELRSLTSEDSAVYFCVREAYSHHYYAMDYWGQGTSVTVFS VL: DVLMTQTPLSLPVSLGGQASISCRSSQSLLHSNGNTYLEWYLQKPGQSPKLLIYKVSNRFSGVPDRLSGSGSGTDFTLKISRVEAEDLGVYYCFQGSHVPFTFGSGTKLEIN	0.683

Moving on to the next binder.
(Q) Query (binder): 67G11 (antibody, V domains shown, mouse hybridoma antibody; also called hybridoma 67G11) VH: QVQLQQSGAELARPGASVKLSCKASGYTFTSYGIGWVKQRTGQGLEWIGEIYPRSGNTYNNEKFKGKATLTADKSSRTVYMELRSLISEDSAVYFCAREGYSNNYYAMDYWGQGTSVTVFS VL: DVLMTQTPLSLPVSLGDQASISCRSSQSLVHSNGNTYLEWYLQKPGQSPKLLIYKVSNRFSGVPDRLSGSGSGTDFTLKISRVEAEDLGVYYCFQGSHVPFTFGSGTKLEIK ; field requested: IC50
(A) 0.848
